Target: T1, CD123 (Homo sapiens (Human), UniProt P26951 19-305, limits assumed)
T1 construct: The CD123 construct used in the ELISA is not described; also called CD123-Signal
T1 sequence: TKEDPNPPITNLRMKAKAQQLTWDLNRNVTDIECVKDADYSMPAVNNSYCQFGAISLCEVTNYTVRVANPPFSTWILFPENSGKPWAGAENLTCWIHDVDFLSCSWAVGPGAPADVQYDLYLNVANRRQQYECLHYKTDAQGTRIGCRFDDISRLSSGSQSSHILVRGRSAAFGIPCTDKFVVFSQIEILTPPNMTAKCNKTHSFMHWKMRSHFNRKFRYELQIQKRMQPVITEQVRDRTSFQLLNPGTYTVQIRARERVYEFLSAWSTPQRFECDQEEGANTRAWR
Assay: ELISA
Parameters: unit not given here
Each entry below carries its recorded ELISA_avg.

- D domain of SEQ ID NO: 531 (designed binder) MGSWMYFKDTLADIKWYLEALGGSEAELAFFEDWIAEFEDDLQVYKGKGNPEVEALRKEAAAIRDELQAYRHN: 3.1
- D domain of SEQ ID NO: 639 (designed binder) MGSWWEFEIRLDAIDERLWALGGSEAELAWFEQSIAFFENDLQVYKGKGNPEVEALRWEANAIIEELFAYRHN: 3.2

Quickly give me recorded ELISA_avg for D domain of SEQ ID NO: 415 (designed binder) MGSWYEFEDRLWAIDNRLWALGGSEAELAAFEKEIAAFESELQAYKGKGNPEVEELRVHAADIRDDLQAYRHN
4.9
